Target: T1, KIAA0807 (PDZ domain)-GST fusion protein (human, UniProt Q6P0Q8 1104-1192)
T1 construct: also called K807; KIAA807; not shown: glutathione S-transferase encoded by vector pGEX-3X (Pharmacia)
T1 sequence: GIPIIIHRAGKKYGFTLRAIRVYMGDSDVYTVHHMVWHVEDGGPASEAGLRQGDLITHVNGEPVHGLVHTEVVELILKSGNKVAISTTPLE
Assay: G assay competition against 10 uM DOCK2 20-mer; 8-mer DOCK2 peptide competing against 10 uM DOCK2 20-mer
OUTCOME_MEASURE: pIC50
One number for each entry, as −log10 of the molar value.

Input: Recorded pIC50 of PDSLSTDL (also called DOCK2 8-mer) [8-mer peptide corresponding to the C-terminus of DOCK2] , please.
Output: 3.60
